Hello, the source for this data is patent US20250074911A1, in case you need it.

target: BTK T474I (Homo sapiens (Human), UniProt Q06187, T474I); experiment: Binding kinetics measurements (Surface Plasmon Resonance) on BTK T474I; conditions: target residence time, SPR
Sequence (Q06187 whole entry T474I): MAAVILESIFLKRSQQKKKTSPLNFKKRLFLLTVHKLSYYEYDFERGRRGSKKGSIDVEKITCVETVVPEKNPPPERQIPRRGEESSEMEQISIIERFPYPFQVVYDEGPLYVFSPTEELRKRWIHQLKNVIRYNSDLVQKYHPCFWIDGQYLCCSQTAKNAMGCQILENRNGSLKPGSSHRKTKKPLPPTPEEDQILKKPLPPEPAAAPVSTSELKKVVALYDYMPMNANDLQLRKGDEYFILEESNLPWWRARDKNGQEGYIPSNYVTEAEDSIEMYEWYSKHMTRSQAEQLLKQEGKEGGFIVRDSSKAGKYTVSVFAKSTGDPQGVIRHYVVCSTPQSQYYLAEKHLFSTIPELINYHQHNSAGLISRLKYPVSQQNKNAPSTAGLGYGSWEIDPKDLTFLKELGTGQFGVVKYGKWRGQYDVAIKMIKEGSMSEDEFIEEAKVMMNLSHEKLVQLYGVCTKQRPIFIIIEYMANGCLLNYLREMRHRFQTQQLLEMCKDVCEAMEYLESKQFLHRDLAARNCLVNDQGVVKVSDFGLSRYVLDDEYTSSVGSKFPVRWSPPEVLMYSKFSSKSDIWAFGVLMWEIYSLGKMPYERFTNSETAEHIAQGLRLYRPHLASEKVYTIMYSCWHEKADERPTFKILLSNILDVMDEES
REPORTED ENDPOINT: Tau (h) BTK T474I (Act)

- COMPOUND: "Nc1ncc2c3c1c(-c1ccc(C(=O)Nc4cc(C(F)(F)F)ccn4)cc1)nn3[C@@H]1CCC[C@H](C1)NC(=O)CCOCC/C=C/2"
  U: "h"
  Tau (h) BTK T474I (Act): 5.95

[I] N#Cc1ccnc(NC(=O)c2ccc(-c3nn4c5c(cnc(N)c35)/C=C/CCCCCC(=O)N[C@@H]3CC[C@@H]4C3)cc2)c1
[II] Nc1ncc2c3c1c(-c1ccc(C(=O)Nc4cc(C(F)(F)F)ccn4)cc1)nn3[C@@H]1CC[C@H](C1)NC(=O)CCCCC/C=C/2
[III] C[C@H]1CC(=O)N[C@@H]2CCC[C@H](C2)n2nc(-c3ccc(C(=O)Nc4cc(C(F)(F)F)ccn4)cc3)c3c(N)ncc(c32)/C=C/CN1C
[IV] Nc1ncc2c3c1c(-c1ccc(C(=O)Nc4cc(C(F)(F)F)ccn4)cc1)nn3[C@@H]1CCC[C@H](C1)NC(=O)[C@H]1CN(C/C=C/2)CCN1
Please rank these compounds by Tau (h) BTK T474I (Act) in descending order. Reply with the item labels sorted in the order that was asked for.
IV, II, I, III

[A] Cn1nc(NC(=O)c2ccc(-c3nc4n5c(cnc(N)c35)/C=C/CCOCCC(=O)N[C@@H]3CC[C@@H]4C3)cc2)cc1C(F)(F)F
[B] N#Cc1ccnc(NC(=O)c2ccc(-c3nc4n5c(cnc(N)c35)/C=C/CCCCCC(=O)N[C@@H]3CCC[C@@H]4C3)cc2)c1
Please indicate which entry, A or B , has the lower recorded Tau (h) BTK T474I (Act) value. Please identify the chosen entry by its label.
B
(B: 0.85 h, A: 1.28 h)

[a] N#Cc1ccnc(NC(=O)c2ccc(-c3nn4c5c(cnc(N)c35)/C=C/COCCC(=O)N[C@@H]3CCC[C@@H]4C3)cc2)c1
[b] C[C@@H]1CC(=O)N[C@@H]2CCC[C@H](C2)n2nc(-c3ccc(C(=O)Nc4cc(C(F)(F)F)ccn4)cc3)c3c(N)ncc(c32)/C=C/CCN1
Given a and b , report the one with the higher recorded Tau (h) BTK T474I (Act). # respond with the chosen item's label
b

[A] N#Cc1ccnc(NC(=O)c2ccc(-c3nc4n5c(cnc(N)c35)/C=C/CCOCCC(=O)N[C@@H]3CC[C@@H]4C3)cc2)c1
[B] Nc1ncc2c3c1c(-c1ccc(C(=O)Nc4cc(C(F)(F)F)ccn4)cc1)nn3[C@@H]1CCC[C@H](C1)C(=O)NCCCCC/C=C\C2 [Example 89b]
[C] Nc1ncc2c3c1c(-c1ccc(C(=O)Nc4cc(C(F)(F)F)ccn4)cc1)nn3[C@@H]1CCC[C@H](C1)C(=O)NCCCCC/C=C/2
Put the compounds in ascending order of Tau (h) BTK T474I (Act). Sort and list the labels as requested.
B, A, C
